- Tested on: HEp-2
- method description: Antiproliferative activity against human HEp2 cell line at 100 uM relative to control
- Assay type: functional
*1 amine or outer side, *2 acyl side, *3 side chain or, on linkers, in order; H or OH if unused. Where a SMILES comes first, the peptide text is derived from it. [ ]: non-standard residue; d: D form. X2 = O=C(C1(N[*:1])C2CC3CC(C2)CC1C3)[*:2]
readout: inhibition at 100 µM (%)
Only the number, expressed in %, is required.

Note down inhibition at 100 µM recorded for N[C@@H](Cc1ccc(O)cc1)C(=O)N[C@H](C(=O)NCC(=O)O)C1C2CC3CC(C2)CC1C3 (stereo partly drawn)
18.8

# return recorded inhibition at 100 µM for input N[C@@H](Cc1ccc(O)cc1)C(=O)N[C@H](C(=O)O)C1C2CC3CC(C2)CC1C3 (stereo partly drawn)
8.2

Note inhibition at 100 µM for the compound shown: CSCC[C@H](NC(=O)[C@H](Cc1ccccc1)NC(=O)CNC(=O)C1(NC(=O)[C@@H](N)Cc2ccc(O)cc2)C2CC3CC(C2)CC1C3)C(=O)O (stereo partly drawn) (H-Y[X2]GFM-OH)
16.8
